Form field: pKd (one value per entry).
- Target under test: T1, recombinant human Ang4 carrier-free (R&D Systems, Cat#964-AN-025/CF) (human, UniProt Q9Y264 25-503, limits assumed)
- T1 construct: Bought recombinant protein; also called angiopoietin 4
- T1 sequence: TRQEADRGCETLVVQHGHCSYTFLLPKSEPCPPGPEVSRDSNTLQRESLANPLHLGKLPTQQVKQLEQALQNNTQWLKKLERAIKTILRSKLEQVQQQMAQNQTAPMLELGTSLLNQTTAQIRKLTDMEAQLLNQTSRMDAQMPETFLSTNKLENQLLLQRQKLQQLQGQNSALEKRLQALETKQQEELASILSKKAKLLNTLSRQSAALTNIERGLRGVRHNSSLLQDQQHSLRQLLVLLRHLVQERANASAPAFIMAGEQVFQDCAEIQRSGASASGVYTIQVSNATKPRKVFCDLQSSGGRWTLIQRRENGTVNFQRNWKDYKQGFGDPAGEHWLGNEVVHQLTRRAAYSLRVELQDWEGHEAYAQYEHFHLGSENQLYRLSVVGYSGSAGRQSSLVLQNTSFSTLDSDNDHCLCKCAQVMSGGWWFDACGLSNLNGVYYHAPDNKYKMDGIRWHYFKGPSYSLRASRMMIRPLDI
- Method notes: SPR (BIAcore), Ang4 immobilised on CM5, peptide 25-1.56 µM, 1:1 Langmuir fit
Scale note: pKd = -log10(concentration in M).

| Binder | pKd |
| --- | --- |
| Ac-QEELASILSKKAKLLNTLSRQSAALTNIERGLRGVR-NH2 (MW 4006.8) [CGEN-F9 (SEQ ID NO: 7)] | 5.55 |

Continue with the binder presented below.
Prompt: I would be grateful if you could share the reported pKd for Ac-ETFLSTNKLENQ-NH2 (MW 1464.7) [CGEN-A11 (SEQ ID NO: 10)] .
Response: 5.43
